- Tested on: Calf thymus DNA
- assay protocol: Binding affinity to calf thymus DNA assessed as inhibition of DNA-dependent Escherichia coli RNA polymerase activity by measuring [14C]ATP incorporation at 7.5 uM by liquid scintillation spectrometer analysis
- Assay type: nucleic-acid assay
- conditions used: Bos taurus
Please go through the items and note down their inhibition.
Numbers only, in %.

Cc1cc(NCCCNCCCNc2cc(C)nc3cc(N)ccc23)c2ccc(N)cc2n1 31
Cc1cc(NCCCCCCCCNc2cc(C)nc3cc(N)ccc23)c2ccc(N)cc2n1 91

Each of the following entries comes with a recorded value; kindly state inhibition for each.
1. Cc1cc(NCCCCNCCCNc2cc(C)nc3cc(N)ccc23)c2ccc(N)cc2n1
2. Cc1cc(NCCCCCCNc2cc(C)nc3cc(N)ccc23)c2ccc(N)cc2n1
3. Cc1cc(NCCCCCCCNc2cc(C)nc3cc(N)ccc23)c2ccc(N)cc2n1

[38, 50, 24]
